target: Delta-type opioid receptor (Homo sapiens); experiment: Displacement of [3H]DADLE from delta opioid receptor expressed in CHO cells; format: cell-based
Sequence (P41143 whole entry): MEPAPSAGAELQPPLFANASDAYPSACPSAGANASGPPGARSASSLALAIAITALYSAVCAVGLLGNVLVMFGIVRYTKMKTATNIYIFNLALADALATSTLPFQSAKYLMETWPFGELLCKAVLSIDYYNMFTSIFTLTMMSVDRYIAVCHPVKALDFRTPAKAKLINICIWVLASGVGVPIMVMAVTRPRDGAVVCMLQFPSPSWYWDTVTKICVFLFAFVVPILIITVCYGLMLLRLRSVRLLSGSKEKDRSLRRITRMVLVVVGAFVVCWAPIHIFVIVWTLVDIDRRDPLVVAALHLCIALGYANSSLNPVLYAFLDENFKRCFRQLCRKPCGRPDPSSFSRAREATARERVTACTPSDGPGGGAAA
pKi: −log10 of the molar value.
Recorded Endpoint: pKi

## Input Need pKi, item CC[C@@]12CCN(Cc3ccc(F)cc3)C[C@@H]1Oc1c(O)cccc12 (racemic)
## Output < 5.35

## Input Try this molecule too: CC[C@@]12CCN(CCc3ccc(F)cc3)C[C@@H]1Oc1c(O)cccc12 (racemic)
## Output < 5.35

## Input Try this molecule too: CN1CC[C@@]2(CCc3ccccc3)c3cccc(O)c3O[C@H]2C1 (racemic)
## Output < 5.37
